Give measured Improvement in binding affinity of inhibitory peptide relative to WT for each item. Keep answers brief.
Target system: T1, thermostable variant of Streptomyces mobaraensis transglutaminase (Streptomyces mobaraensis, UniProt P81453 79-407)
T1 sequence: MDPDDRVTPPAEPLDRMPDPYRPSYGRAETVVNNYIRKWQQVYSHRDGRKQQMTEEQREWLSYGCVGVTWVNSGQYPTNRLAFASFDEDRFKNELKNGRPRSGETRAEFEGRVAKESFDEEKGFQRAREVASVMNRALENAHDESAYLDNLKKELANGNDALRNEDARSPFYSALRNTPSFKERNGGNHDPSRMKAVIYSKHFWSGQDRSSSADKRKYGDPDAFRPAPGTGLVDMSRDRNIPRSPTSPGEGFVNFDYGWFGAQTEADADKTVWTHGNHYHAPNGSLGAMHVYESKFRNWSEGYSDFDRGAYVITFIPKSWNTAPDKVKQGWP
Assay overview: cell-based or functional assay

# lookup: Improvement in binding affinity of inhibitory peptide relative to WT of MDNGAGEEWKSYAETYRLTADDVANINALNESAPAASSAGPSFRAP [pro-peptide variant T9W]
> 1.2 fold

# lookup: Improvement in binding affinity of inhibitory peptide relative to WT of MDNGAGEEHKSYAETYRLTADDVANINALNESAPAASSAGPSFRAP [pro-peptide variant T9H]
> 1.2 fold

# lookup: Improvement in binding affinity of inhibitory peptide relative to WT of MDNGAGEETKSYAETYRLTAMDVANINALNESAPAASSAGPSFRAP [pro-peptide variant D21M]
> 1.2 fold

Recorded values, source patent US20250304927A1.
